METRIC_NAME: intrinsic clearance, rat liver microsomes (mL/min/kg)

[
  {
    "CPD_SMILES": "CCOc1ccc(-c2ccccc2NC(=O)COC)cc1",
    "REPORTED_VALUE": 4200
  },
  {
    "CPD_SMILES": "CC1CCN(CC(=O)Nc2nc(-c3c[nH]c4ccccc34)cs2)CC1",
    "REPORTED_VALUE": 315
  },
  {
    "CPD_SMILES": "Cc1ncc(CCN2C(=O)NC3(CCCC3)C2=O)s1",
    "REPORTED_VALUE": 63.6
  },
  {
    "CPD_SMILES": "O=S(=O)(NCc1n[nH]c2c1CCCCC2)c1ccc(OC(F)F)cc1",
    "REPORTED_VALUE": 1760
  },
  {
    "CPD_SMILES": "CC1(C)CC(=O)c2c(C(F)(F)F)nn(-c3ccc(C(N)=O)c(N[C@H]4CC[C@H](OC(=O)CN)CC4)c3)c2C1",
    "REPORTED_VALUE": 469
  },
  {
    "CPD_SMILES": "O=C(CN1CCCN(c2ccc(C(F)(F)F)cn2)CC1)Nc1ccccc1",
    "REPORTED_VALUE": 807
  },
  {
    "CPD_SMILES": "CCc1nc(C(N)=O)c(Nc2ccc(N3CCC(N4CCN(C)CC4)CC3)c(OC)c2)nc1NC1CCOCC1",
    "REPORTED_VALUE": 14.7
  },
  {
    "CPD_SMILES": "CN1CCc2nc(NC(=O)c3cncn3-c3ccccc3)sc2C1",
    "REPORTED_VALUE": 63.6
  },
  {
    "CPD_SMILES": "O=C(CN1CCC(c2ccccc2)CC1)N1CCNC1=O",
    "REPORTED_VALUE": 65.2
  }
]
